# test-target: Mitogen-activated protein kinase kinase kinase 2 (Homo sapiens)
# method-notes: wildtype MEKK2 PB1-MEK5 interaction enhancers or blockers – biochemical, single concentration, multiplex bead flow cytometry, confirmation (AID 1892)
# experimental-context: Alexa488-MEK5 binding to MEKK2 WT, at 10 µM, actives lie on both sides
The campaign covered roughly 5,900 compounds. About 140 (2.4%) were called active. No stated cut-off is given here; in the data, active means binding response below about 16% or above about 210%; inactive means in between. For the sample, actives were picked, then their nearest neighbours and some compounds at random.
Outcome codes: active, inactive

>>> assigned_class("O=C(NC1CCN(Cc2ccccc2)CC1)c1cc(Br)c(Br)[nH]1")
"inactive"
>>> assigned_class("Cc1cnc(NC(=O)Cn2cnc3c2c(=O)n(C)c(=O)n3C)s1")
"inactive"
>>> assigned_class("O=C(NCCN1CCOCC1)[C@H](Cc1ccccc1)N1C(=O)c2ccccc2C1=O")
"inactive"
>>> assigned_class("COc1ccc(-c2[nH]ncc2CN(C)Cc2c(C)n[nH]c2C)c(OC)c1")
"inactive"
>>> assigned_class("N=C(N)SCc1cccc2ccccc12")
"inactive"
>>> assigned_class("Cc1onc(-c2ccccc2Cl)c1C(=O)OCC(=O)c1ccccc1")
"inactive"
>>> assigned_class("CC(=O)Nc1ccc(N2CCOCC2)c(C(=O)Nc2cccc(C)c2)c1")
"inactive"
>>> assigned_class("O=C(NCCCN1CCCCCC1)c1ccc(N2CCCC2=O)cc1")
"inactive"
>>> assigned_class("Clc1ccc(-c2nnc(SCc3nc4ccccc4s3)o2)cc1")
"inactive"
>>> assigned_class("C#CCOCCOCCOCCNc1nc(N2CCN(C(=O)C([C@@H](C)CC)n3cc(C(N)COC(=O)C(F)(F)F)nn3)CC2)nc(N2CCN(C(=O)[C@H](CCCCN)n3cc(C(N)CC(C)C)nn3)CC2)n1 (some centres not stated)")
"inactive"
>>> assigned_class("O=C(/C=C/Nc1ccccc1)c1cnc(-c2ccccc2)s1")
"inactive"
>>> assigned_class("CC(C)CC(=O)N1CCN(Cc2ccccc2Br)CC1")
"inactive"
>>> assigned_class("Cc1cccc(OCCNC(=O)CSc2ccc(C(F)(F)F)cc2[N+](=O)[O-])c1")
"inactive"
>>> assigned_class("O=c1[nH]c(=S)[nH]c2[nH]c(=S)[nH]c12")
"inactive"
>>> assigned_class("O=C1Nc2ccc(Br)cc2/C1=N/N=C/C1=C(N2CCOCC2)C(=C\\c2ccccc2)/CC1")
"inactive"
>>> assigned_class("CN(Cc1ccccc1)CC(O)COc1ccc(CNCc2cc3ccccc3s2)cc1 (configuration not stated)")
"inactive"
>>> assigned_class("CCOc1nnc(C)c2c(C)n(-c3cccc(Cl)c3)nc12")
"inactive"
>>> assigned_class("Cc1nn(-c2ccccc2)c(NC(=O)c2cccs2)c(-c2ccc(Cl)cc2)c1=O")
"inactive"
>>> assigned_class("O=C(O)C1CCN(c2ccc([N+](=O)[O-])cc2[N+](=O)[O-])CC1")
"inactive"
>>> assigned_class("COc1ccc(S(=O)(=O)Nc2ccc3oc(C)c(C(C)=O)c3c2)cc1")
"inactive"
>>> assigned_class("Cn1ccc(=Nc2ccc(NC(=O)c3ccc(N=c4ccn(C)c5ccc([N+](=O)[O-])cc45)cc3)cc2)cc1")
"inactive"
>>> assigned_class("Cc1ccc(S(=O)(=O)/N=S(\\C)C(C)C)cc1 (configuration not stated)")
"inactive"
>>> assigned_class("O=C(NCCC1=CCCCC1)c1ccc(Cl)c([N+](=O)[O-])c1")
"inactive"
>>> assigned_class("CCOc1cc(C(=O)OCC(=O)Nc2cccc(C)c2)ccc1OCC(=O)N1CCOCC1")
"inactive"
>>> assigned_class("O=c1c2ccccc2c(-c2ccccc2)nn1Cc1ccccc1")
"inactive"
>>> assigned_class("CCOC(=O)c1sc2nc(C)nc(SCC(N)=O)c2c1C")
"inactive"
>>> assigned_class("Cc1ccc(S(=O)(=O)NC(=O)N2CCCC(C)(C)C2)cc1")
"inactive"
>>> assigned_class("COc1cccc(C2CC(c3ccccc3)=NN2S(=O)(=O)c2ccccc2)c1OC (configuration not stated)")
"inactive"
>>> assigned_class("COc1cc2c(cc1OC)CN(C(=O)c1ccc(S(=O)(=O)N3CCCCCC3)cc1)CC2")
"inactive"
>>> assigned_class("CNC(C)C#Cc1ccc2sc3cc(OC)c(OC)cc3c(=O)c2c1 (configuration not stated)")
"inactive"
>>> assigned_class("O=C(Nc1ccn(Cc2ccccc2)n1)c1cccc(F)c1")
"inactive"
>>> assigned_class("Cc1ccc(N2C(=O)CC(N3CCSCC3)C2=O)c(C)c1 (configuration not stated)")
"inactive"
>>> assigned_class("Cc1ccc2c(C)c(C(=O)N3CCN(c4ccncc4)CC3)oc2c1C")
"inactive"
>>> assigned_class("COc1ccc(C(=O)NCC(=O)N/N=C/c2ccc([N+](=O)[O-])o2)cc1OC")
"inactive"
>>> assigned_class("O=C(OCC1O[C@@H](OC(=O)c2cc(O)c(O)c(O)c2)[C@@H](OC(=O)c2cc(O)c(O)c(O)c2)[C@@H](OC(=O)c2cc(O)c(O)c(O)c2)[C@@H]1OC(=O)c1cc(O)c(O)c(O)c1)c1cc(O)c(O)c(O)c1 (some centres not stated)")
"active"
>>> assigned_class("C=CCN1C=C2C(=O)C(C)(OC(=O)CCc3ccccc3)C(=O)C=C2C=C1c1ccc(C#N)cc1 (configuration not stated)")
"inactive"
>>> assigned_class("CCC(C)OC(=O)C(C)Oc1ccc(-c2ccccc2)cc1 (configuration not stated)")
"inactive"
>>> assigned_class("O=C1NCC(=O)N(Cc2ccccc2)/C1=C/c1ccccc1")
"inactive"
>>> assigned_class("Cn1c(C(=O)NCCCN2CCCCC2)cc2sccc21")
"inactive"
>>> assigned_class("CN(C)CCCN(C(=O)c1ccc(S(=O)(=O)N2CCCc3ccccc32)cc1)c1nc2ccc(F)cc2s1")
"inactive"
>>> assigned_class("COc1cccc(OCC(=O)NNC(=O)c2cnccn2)c1")
"inactive"
>>> assigned_class("CSCC[C@H](NC(=O)CCCn1nnc2ccccc2c1=O)C(=O)O")
"inactive"
